Target: RET(KD: 658-1114 G810R) (Homo sapiens, UniProt P07949, G810R)
Construct: 658-1114; expressed in transfected cells; host or cells: 293T.165 (293T cells, generated in-house)
Sequence (P07949 658-1114 G810R): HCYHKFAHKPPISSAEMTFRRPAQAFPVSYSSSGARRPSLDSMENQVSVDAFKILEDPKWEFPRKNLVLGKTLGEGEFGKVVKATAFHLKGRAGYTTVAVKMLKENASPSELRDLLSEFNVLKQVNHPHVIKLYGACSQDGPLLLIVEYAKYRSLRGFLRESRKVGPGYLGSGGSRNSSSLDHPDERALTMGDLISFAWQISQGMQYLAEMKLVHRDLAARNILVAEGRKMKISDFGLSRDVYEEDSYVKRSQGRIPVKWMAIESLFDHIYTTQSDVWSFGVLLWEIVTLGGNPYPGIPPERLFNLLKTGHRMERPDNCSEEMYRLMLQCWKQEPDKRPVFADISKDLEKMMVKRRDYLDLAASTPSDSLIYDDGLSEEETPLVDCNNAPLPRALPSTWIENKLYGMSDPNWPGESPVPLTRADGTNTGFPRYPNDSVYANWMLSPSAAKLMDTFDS
Test: HiBiT-Degradation, RET G810R degradation assay (Nano-Glo HiBiT Lytic), 293T.165 cells
Assay type: cell-based
Conditions: HiBiT-Degradation, 6.0 hours, read-out: 293T.165 RET(KD: 658-1114 G810R) 6.0 hours (DC50)
propertyMeasured: DC50

# molecule, DC50
data = [
    ("CC(C)NC(=O)C1(C)CCN(c2ccc(-c3cc(-c4ccc(N5CCN(C(=O)CN6CCC(c7ccc(NC8CCC(=O)NC8=O)cc7F)CC6)CC5)cc4)cn4ncc(C#N)c34)cn2)CC1 (stereo not shown)", "< 100 nM"),
    ("CCC1(NC(=O)C(C)C)CCN(c2ccc(-c3cc(-c4cnn(C5CCN(C(=O)CN6CCC(c7ccc(NC8CCC(=O)NC8=O)cc7F)CC6)CC5)c4)cn4ncc(C#N)c34)cn2)CC1 (stereo not shown)", "< 50 nM"),
    ("Cn1nc(N2CCC(=O)NC2=O)c2ccc(C3CCN(CC(=O)N4CCC(n5cc(-c6cc(-c7ccc(N8CCN(Cc9ccccn9)CC8)nc7)c7c(C#N)cnn7c6)cn5)CC4)CC3)cc21", "< 100 nM"),
]

DC50 of CC(C)NC(=O)C1(C)CCN(c2ccc(-c3cc(-c4ccc(N5CCN(C(=O)CN6CCC(c7ccc(NC8CCC(=O)NC8=O)cc7)CC6)CC5)cc4)cn4ncc(C#N)c34)cn2)CC1 (stereo not shown) on RET(KD: 658-1114 G810R) (Homo sapiens, UniProt P07949, G810R)? < 50 nM

Now the molecule CCC1(C(=O)NC2CCOCC2)CCN(c2ccc(-c3cc(-c4cnn([C@H]5CC[C@H](CCN6CCC(c7ccc(NC8CCC(=O)NC8=O)cc7F)CC6)CC5)c4)cn4ncc(C#N)c34)cn2)CC1 (stereo partly shown) < 50 nM

Check N#Cc1cnn2cc(-c3ccc(N4CCN(C(=O)CN5CCC(c6ccc(NC7CCC(=O)NC7=O)cc6F)CC5)CC4)cc3)cc(-c3ccc(N4CCN(C(=O)Cc5ccc(F)cn5)CC4)nc3)c12 (stereo not shown) too. < 100 nM

Moving on to N#Cc1cnn2cc(-c3cnn(C4CCN(C(=O)CN5CCC(c6ccc(NC7CCC(=O)NC7=O)cc6F)CC5)CC4)c3)nc(-c3ccc(N4CCN(C(=O)Cc5ccc(F)cn5)CC4)nc3)c12 (stereo not shown) < 100 nM

Follow-up item: N#Cc1cnn2cc(-c3ccc(N4CCN(C(=O)CC5(O)CCN(c6ccc(NC7CCC(=O)NC7=O)cc6)CC5)CC4)cc3)cc(-c3ccc(N4CCN(C(=O)Cc5ccc(F)cn5)CC4)nc3)c12 (stereo not shown) < 100 nM

Follow-up entry: CCC1(C(=O)NC(C)C)CCN(c2ccc(-c3nc(-c4cnn(C5CCN(C(=O)CC6(O)CCN(c7ccc(N[C@@H]8CCC(=O)NC8=O)cc7Cl)CC6)CC5)c4)cn4ncc(C#N)c34)cn2)CC1 (single isomer, unassigned) < 50 nM

Quick one: N#Cc1cnn2cc(-c3ccc(N4CCN(C(=O)CN5CCC(c6ccc(NC7CCC(=O)NC7=O)cc6)CC5)CC4)cc3)cc(-c3ccc(N4CC5CC(C4)N5Cc4ccccc4)nc3)c12 (stereo not shown) < 100 nM

====

biological target: RET(KD: 658-1114 G810R) (Homo sapiens, UniProt P07949, G810R); construct: 658-1114; expressed in transfected cells; host or cells: 293T.165 (293T cells, generated in-house); experiment: HiBiT-Degradation, RET G810R degradation assay (Nano-Glo HiBiT Lytic), 293T.165 cells; assay type: cell-based; conditions: 6.0 hours, half-maximal degradation concentration, read-out: 293T.165 RET(KD: 658-1114 G810R) 6.0 hours (DC50)
Structures can show the parent of a compound that is named as a salt.
# DC50 listing for each entry below

Consider the following illustrative entries.
# molecule, propertyMeasured, observedValue
rows = [
    ("Cn1nc(N2CCC(=O)NC2=O)c2cc(F)c(N3CCN([C@H]4CC[C@@H](n5cc(-c6cn7ncc(C#N)c7c(-c7ccc(N8C[C@H]9COC[C@@H](C8)N9Cc8ccc(=O)[nH]c8)nc7)n6)cn5)CC4)CC3)cc21 (single isomer, unassigned)", "DC50", "< 100 nM"),
    ("CCC1(C(=O)NC(C)C)CCN(c2ccc(-c3nc(-c4cnn(CC5CCN(C(=O)CC6(O)CCN(c7ccc(NC8CCC(=O)NC8=O)cc7F)CC6)CC5)c4)cn4ncc(C#N)c34)cn2)CC1 (stereo not drawn)", "DC50", "< 100 nM"),
    ("CCC1(C(=O)NC(C)C)CCN(c2ccc(-c3nc(-c4cnn(C5CCC6(CC5)CN(C(=O)CC5(O)CCN(c7ccc(NC8CCC(=O)NC8=O)cc7F)CC5)C6)c4)cn4ncc(C#N)c34)cn2)CC1 (stereo not drawn)", "DC50", "< 50 nM"),
    ("CCC1(C(=O)NC2CCC2)CCN(c2ccc(-c3nc(-c4cnn([C@H]5CC[C@H](N6CCN(c7c(F)cc(N[C@@H]8CCC(=O)NC8=O)cc7F)CC6)CC5)c4)cn4ncc(C#N)c34)cn2)CC1 (single isomer, unassigned)", "DC50", "< 50 nM"),
    ("COc1ccc(NC2CCN(c3ccc(-c4nc(-c5cnn([C@H]6CC[C@@H](N7CCN(c8c(F)cc(NC9CCC(=O)NC9=O)cc8F)CC7)CC6)c5)cn5ncc(C#N)c45)cn3)CC2)cn1 (single isomer, unassigned)", "DC50", "< 50 nM"),
]

DC50 for N#Cc1cnn2cc(-c3cnn(C4CCN(C(=O)CC5(O)CCN(c6ccc(NC7CCC(=O)NC7=O)cc6F)CC5)CC4)c3)nc(-c3ccc(N4CCN(C(=O)c5ccon5)CC4)nc3)c12 (stereo not drawn) ? < 50 nM

Same read-out for CCC1(C(=O)NC(C)C)CCN(c2ccc(-c3nc(-c4cnn(C5CCN(C(=O)CC6(O)CCN(c7cc(OC)c(NC8CCC(=O)NC8=O)cc7F)CC6)CC5)c4)cn4ncc(C#N)c34)cn2)CC1 (stereo not drawn) ? < 50 nM

Also check N#Cc1cnn2cc(-c3cnn(C4CCN(C(=O)CN5CCC(c6ccc(NC7CCC(=O)NC7=O)cc6)CC5)CC4)c3)cc(-c3ccc(N4CCN(C(=O)Cc5ccc(F)cn5)CC4)nc3)c12 (stereo not drawn) [Compound 15, formic acid salt] < 100 nM

====

Documented Emax across a set of compounds
target: RET (658-1114) (Homo sapiens); construct: 658-1114; expressed in transfected cells; host or cells: 293T.144 (293T cells, generated in-house); assay: HiBiT-Degradation, RET wild-type degradation assay (Nano-Glo HiBiT Lytic), 293T.144 cells; assay type: cell-based; settings: HiBiT-Degradation, 6.0 hours, read-out: 293T.144 RET (658-1114) 6.0 hours (Emax)

Solved cases (2 shown):
# compound, Emax
data = [
    ("N#Cc1cnn2cc(-c3cnn(C4CCN(C(=O)CN5CCC(c6ccc(OC7CCC(=O)NC7=O)cc6F)CC5)CC4)c3)nc(-c3ccc(N4CCN(Cc5cc(F)ccn5)CC4)cc3)c12 (stereo not drawn) [Compound 38]", "< 30%"),
    ("CC(C)(C)NC(=O)C1(C)CCN(c2ccc(-c3cc(-c4ccc(N5CCN(C(=O)CN6CCC(c7ccc(NC8CCC(=O)NC8=O)cc7F)CC6)CC5)cc4)cn4ncc(C#N)c34)cn2)CC1 (stereo not drawn) [Compound 25]", "< 30%"),
]

Now consider a different compound.
Checklist item: Emax tested on RET (658-1114) (Homo sapiens), entry CC(C)NC(=O)C1(C)CCN(c2ccc(-c3cc(-c4ccc(N5CCN(C(=O)CN6CCC(c7ccc(NC8CCC(=O)NC8=O)cc7)CC6)CC5)cc4)cn4ncc(C#N)c34)cn2)CC1 (stereo not drawn) [Compound 35] , value? < 30%

// provenance: patent US12661410B2
